All figures here come from the DeepSol protein solubility set.

Assay: soluble on expression in E. coli; label from the status in PepcDB or PDB records
observation type: soluble on expression in E. coli

- sequence data: "MSQQIQMKSVIDVKFPTHLFSPLATSSPKLTRMRAPIRDQSWSSCSDDSSGNLTSQAITGVDDSHIEATKLENESSTSSCSMHTALEFVNSSIFERVRSYSEVITREELQSAIFERKLTETDCSKEEAEMYSIIVTERILWTAGRTWTGTIQVKTKDLLNDYVRYACEDWYMKHTGQLCAVELNHIGKWDEIFDSNAIAIYCYETGIPTIIVDRIFSSNLVRRSTGNYLDTKEVTWLIFAMIGTDENQSIEYWFRVLDVQSTGILQLDDLRMFYDAITKFLVNNNVQSLPFENAIAQFRDILGTDKWNLQSFKKNSQLAFRVINGFVCALRFLEQEICEKTNTERQDDEEFGMVRTRWQRLIDHKFDDYYAQSSTSSSGSFNINNEPINPV"
  result: "not soluble"
- sequence data: "MLLENFYKIIHIKEREDGKQEIEIELNPGHVLYQGHFPGQPVVPGVCTLQIIKESAEQIASQPLQYVQIASSKFLSAINPLETPLLQLFIRLEKTEEHLFKLQAEGICNGKEFIKLKAVLMASKYQLEHHHHHH"
  result: "soluble"
- sequence data: "MGSDKIHHHHHHAEKLSDGKVKLGVLTDMTGYYADLAGPGSVVAARMAVEDFGGKVLGKPVELVSADHQLKADVASNIARKWIDEGQVDAIVDLVSSSTAGAVMPVAAEKKRITLLSGPGTTAFTGEKCTRYNVHYTYNNWALANGTGREVVKQGGDSWFFLTADYIFGKSLEEDTTKVVKAAGGKVLGAARYPSPGTTDFSSYLLQAQGSGAKIVGLANAGADTVNSIRQAEEFGVTPKQSLAGLLVFITDVHSLGLEAAKGMYLTTAFYWDLNDETRKWSRRFFQKHGKMPTMVQAGVYSSVMHYLKAVQAAGTDDADAVMAKMRETPVNDFFAKNARIGPDGLLRHDMYLARVKAPKDSKQPWDYYQIVKTIPAAEAFPSVEAQACPLAKR"
  result: "not soluble"
- sequence data: "MAQMTMVQAINDALKTELKNDQDVLIFGEDVGVNGGVFRVTEGLQKEFGEDRVFDTPLAESGIGGLAMGLAVEGFRPVMEVQFLGFVFEVFDAIAGQIARTRFRSGGTKTAPVTIRGPFGGGVHTPELHADNLEGILAQSPGLKVVIPSGPYDAKGLLISSIRSNDPVVYLEHMKLYRSFREEVPEEEYTIDIGKANVKKEGNDISIITYGAMVQESMKAAEELEKDGYSVEVIDLRTVQPIDVDTIVASVEKTGRAVVVQEAQRQAGVGAAVVAELSERAILSLEAPIGRVAAADTIYPFTQAENVWLPNKNDIIEKAKETLEF"
  result: "not soluble"
- sequence data: "MKLSIVIVNYRVPYFLEQCLLSVRKSAQGIDTEVWVVDNNSGDGSVEYLQSRFPEVHFVANEENVGFSRANNQAIRLSKGQYVLLLNPDTLIGESTLRTVVDFMDSKPNAGGLGVKMLNGHGRFLPESKRGFPSPWVSFCKLSGLNRLFPHSSRFNRYHLSYLSRDEVHKVEVLSGAFMLMRREALDKVGLLDERFFMYGEDIDLSYRLILGGYDNYYYPTPILHYKGESSSVSDVKYLRSFYGAMGLFFDKYYRNRMNPLLHGLINVVIKARTALALMLRSLRKVPAAEKPAKIFYWHPSEGEAAISAYHDRSHILINTDEVTCDRLLLTMEKLADRKHTFHLTNDTTKRVISP"
  result: "not soluble"
- sequence data: "MDYYRVGTLVNTHGIRGEVKVVVVTDFPEERFKVGQQLSLFKTPDETTGGITVKIAKAREQKGLYFLTFEGLDNINDVERYKGWTIKVPAEALHALPAGEYYYHQIVGLQVVTTADEPLGTIKEILSPGANDVWVVKRDHGQSDVLLPKIPQVIKDVDLDAGVVTVELMEGLIDLEHHHHHH"
  result: "soluble"
- sequence data: "MKILVALAVFFLVSTQLFAEEIGANDDLNYWSDWYDSDQIKEELPEPFEHLLQRIARRPKPQQFFGLMGKRDADSSIEKQVALLKALYGHGQISHKRHKTDSFVGLMGKRALNSVAYERSAMQNYERRRLEHHHHHH"
  result: "not soluble"
- sequence data: "MSQTVHFQGNPVTVANVIPQAGSKAQAFTLVAKDLSDVSLSQYAGKRKVLNIFPSIDTGVCAASVRKFNQLATEVENTVVLCVSADLPFAQSRFCGAEGLSNVITLSTLRNNEFLKNYGVEIVDGPLKGLAARAVIVLDENDNVIFSQLVDEITHEPDYDAALNVLKA"
  result: "not soluble"
- sequence data: "MIKNRQEILFLYDVTDANPNGDPLDENKPRIDEETGINIVTDVRLKRTIRDYLYDYKGFDGSNGKDIFVREIESEKGGIKDGKARAKDFNENVDEILQKAIDIRLFGGVIPLDKASITFTGPVQFNMGRSLNKVNLKHIKGTGAFASGEGKAQKTFREEYIVPYSIIAFHGIINENAAKRTGLTDEDVDLLDDAMWNGTKNLITRSKMGHMPRLMLRVVYKPGENFFIGDLQNRISLNFDVEEEKIRSIKDFSIKLDELIDELANYGDKIEKVVFVADKNLRLSYKGREINLKDIKDIRFEEKTF"
  result: "soluble"
- sequence data: "METKTVAITMGDPAGIGPEIIVKALSEDGLNGAPLVVIGCLATLKRLQAKGITPNVELRAIERVAEARFAPGIIHVIDEPLAQPEALEAGKVQAQAGDLAYRCVKRATELALRGDVQAIATAPLNKEALHLAGHNYPGHTELLATLTHSRDYAMVLYTDKLKVIHVSTHIALRKFLDTLSTARVETVIGIADTFLKRVGYVKPRIAVAGVNPHAGENGLFGDEETRILTPAITDARAKGMDVYGPCPPDTVFLQAYEGQYDMVVAMYHDQGHIPLKLLGFYDGVNITAGLPFIRTSADHGTAFDIAWTGKAKSESMAVSIKLAMQLA"
  result: "soluble"

Shift focus to the following entry.
### Prompt Looking for the measured soluble on expression in E. coli of MSLSPEDAIVIILSDDDTIRSALDANIHLQGRRSHLCKSRTDFLISPEADLVGCVVLDARLPDLTASDLTHLICAHAIRCPVIVLTGHGGQAMTVNATKFHVSFIPQPFDLNALAEKIHAAIRTTMEIGRLEGNYRTLTPREREVMKFVAEGLLNKQVAFKLNISEITVKAHRGQVMRKMNARTLPHLVNMAAKLDIGVAFLHEGHHHHHH , can you help?
### Response soluble

* * *

Assay: soluble on expression in E. coli; label from the status in PepcDB or PDB records
observation type: soluble on expression in E. coli

- sequence data: "MPSDSTSNIDTTQRQSADLMAEGFGAGVNAPFLVIVDTHEVNADSTALQPLIEAQEPEEGEFDREQAARFATYMYVTQTYNSNIDVKNAQIISVNDDFTAAQILVTPYTGPADKETPELMHVLRAQEAQIEDVTGTELGTTGFTAVQLDITEQLEDAMPVYLEHHHHHH"
  result: "not soluble"
- sequence data: "MSDDEIGDGARAFNQLIQALSLSIETETAVRTFTEMLVSELDVHQLTEQALALLLQHTGADGGAILIEVDGEIRVAASQGIGSAHTLANNDRVRSALRTERRHRVQLPEDLVVDGMLAQFRPKEVIIDPVRHKEVVLGAVVLASGQGFSAEDRNRLDVFERGLALALHNALLYDRLQTLAALDPLEHHHHHH"
  result: "not soluble"
- sequence data: "MKFSESVPLYKQPLSIPAEQLPQPDLNRNLPLSKYFLMMKTPEIGFQKAEVRDVLLRKVVLNEIEKIPAIWNCKNTYNANKLYPEVAVQVYRRTGTLLHTKMVQMVFKTAKDSLRNRLRDAISRKGLNEVDTEAHLLEWEYYPFVRFYREVSEGWEDRMRKTKQLEKREPAGGVGIVGDDENSMDVEEEPYENPDIIWDDVADPESPTTSMSSTLTSTQGTFTDYHPEEPYHNPEPPLIHPTLEYAAMKTASLQRNQQNKHVMEVRHGSETRTVVVMPTEPPRQQLNAPDFAEEMLQVTYQATRIAREQPERVKLLRKALFDTVLAFDQKEYNCVADLYRDLAEKSSR"
  result: "not soluble"

* * *

Experiment: soluble on expression in E. coli; label from the status in PepcDB or PDB records
observation type: soluble on expression in E. coli

- sequence data: "GVSIRSMKNFYDWIKEFVRDQGEFIAQQSGWLELERSSYAKLIAQTISHVLNGGSLLVSADSSRHWFLNYILSNLNPKDLKERPLLSVIDFNASSFYPKNDANLSLATIEMTYQNPMFWHVGKIENEGLKTILLSKIPSFLWLFEELKEDCLLLKEHDSLLDYKLLQLFKLFENALFSVLYNKVTL"
  soluble on expression in E. coli: "soluble"
- sequence data: "MGSDKIHHHHHHMGDLSFIAINDKCEVVLDNEIYKSNIQGIEEKYIAISLPVANGTYAIMHKGDMTEIWCYHDNQVYSFTSTVIERKKEDAIKLILISKPSYENIKRVQRRKNFRVDLIESIKYKVLNKNVVKTEIEKLKEASEEFSDGYMIDLSGGGLKIRIKQKPNVGDSIFVNLPIGDQKLFLISTCVRAIREVNGEYLCGLEFDDDIDERIREHIINYTFNIMRKHMKKR"
  soluble on expression in E. coli: "not soluble"
- sequence data: "MGSDKIHHHHHHMHLIDFMNEDIKKKLVKKTYKKKETILFAEQENEYVILMIDGIAEAFILNVKGNISTIHLYRSGSFFGEMEQFNDGKKPVEIVAFTDCNVYKLHRDDFLNWLRGDFEATKFLIREISSKLVVNAELIEELSSLSVKERLLRCISLHYYRSELNLLTKKQLASEVNAPIRSINRAINECVQEHLIAYENKRFSVINQREVLKNLPTT"
  soluble on expression in E. coli: "not soluble"
- sequence data: "MPSVESFELDHNAVVAPYVRHCGVHKVGTDGVVNKFDIRFCQPNKQAMKPDTIHTLEHLLAFTIRSHAEKYDHFDIIDISPMGCQTGYYLVVSGETTSAEIVDLLEDTMKEAVEITEIPAANEKQCGQAKLHDLEGAKRLMRFWLSQDKEELLKVFG"
  soluble on expression in E. coli: "soluble"

### Prompt Looking for the measured soluble on expression in E. coli of MGSDKIHHHHHHMYCGVPEEDPDKLVALILSGGQSSRMGTDKGSMELNGERLVERAGNLCASAGLPFYYSINASQNQQYLNFLPADALIVDTLDDIKGPLAGLLSFYVKYPNTDVLLLPCDMIHLGKSILSDLVQAYETMSIGHDIIVYQYANEIIEPMPGIYTSEALRKIYWLFLSGDLTRFSLKYCIEISNSFFIPIKKEAEVLFKNINSPEDITPSK , can you help?
### Response not soluble
